# assay-system: Beta-secretase 2 (Homo sapiens) (UniProt Q9Y5Z0)
# Sequence (Q9Y5Z0 whole entry, looked up): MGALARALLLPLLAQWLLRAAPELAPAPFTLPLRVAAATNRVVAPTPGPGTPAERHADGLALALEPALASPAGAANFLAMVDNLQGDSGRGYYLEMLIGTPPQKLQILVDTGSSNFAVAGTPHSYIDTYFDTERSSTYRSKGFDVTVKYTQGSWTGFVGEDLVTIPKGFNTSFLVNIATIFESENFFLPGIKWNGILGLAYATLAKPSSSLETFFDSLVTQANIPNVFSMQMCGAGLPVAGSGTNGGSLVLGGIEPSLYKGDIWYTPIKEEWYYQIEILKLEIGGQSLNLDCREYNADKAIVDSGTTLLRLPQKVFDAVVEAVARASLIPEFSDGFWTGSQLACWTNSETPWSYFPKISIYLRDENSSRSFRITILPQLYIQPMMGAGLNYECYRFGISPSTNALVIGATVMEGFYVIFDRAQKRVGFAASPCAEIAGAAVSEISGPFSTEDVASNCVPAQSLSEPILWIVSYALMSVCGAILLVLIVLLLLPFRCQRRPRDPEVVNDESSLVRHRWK
# test-protocol: Inhibition of BACE-2 at 10 uM
Please respond with reported inhibition for every item in the list.
Kindly answer with a numeric value in %, unit omitted.

I am curious: what inhibition value has been reported for CCCCNC(=O)[C@H](C)C[C@H](O)[C@H](Cc1ccccc1)NC(=O)[C@@H]1CCC[C@H]([C@H](CCC)NC(C)=O)C1 ?
84

Quick one: inhibition of CCCCNC(=O)[C@H](C)C[C@H](O)[C@H](Cc1ccccc1)NC(=O)[C@@H]1CCC[C@H]([C@H](CC(C)C)NC(C)=O)C1 ?
43

Look at this compound and give its reported inhibition. CCCCNC(=O)[C@H](C)C[C@H](O)[C@H](Cc1ccccc1)NC(=O)[C@@H]1CCC[C@H]([C@H](C)NC(C)=O)C1
71

Find the recorded inhibition belonging to CCCCNC(=O)[C@H](C)C[C@H](O)[C@H](Cc1ccccc1)NC(=O)[C@@H]1CCC[C@H]([C@H](CC)NC(C)=O)C1 and report it.
64

* * *

# assay-system: Beta-secretase 1 (Homo sapiens, UniProt P56817)
# Sequence (P56817 whole entry): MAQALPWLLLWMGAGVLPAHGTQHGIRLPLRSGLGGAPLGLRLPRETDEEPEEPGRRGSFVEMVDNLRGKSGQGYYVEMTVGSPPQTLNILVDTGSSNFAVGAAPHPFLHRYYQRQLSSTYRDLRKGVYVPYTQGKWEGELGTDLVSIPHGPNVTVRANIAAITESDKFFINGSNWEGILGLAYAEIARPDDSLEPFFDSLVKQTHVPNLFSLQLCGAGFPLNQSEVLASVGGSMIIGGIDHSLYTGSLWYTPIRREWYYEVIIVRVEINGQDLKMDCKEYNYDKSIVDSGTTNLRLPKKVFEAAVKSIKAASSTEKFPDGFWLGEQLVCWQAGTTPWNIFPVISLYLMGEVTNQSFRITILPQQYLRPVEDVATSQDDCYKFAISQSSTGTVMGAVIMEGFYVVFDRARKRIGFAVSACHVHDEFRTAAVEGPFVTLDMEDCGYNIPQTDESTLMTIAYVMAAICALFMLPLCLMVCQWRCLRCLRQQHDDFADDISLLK
# test-protocol: Inhibition of BACE1 at 10 uM
Would you mind telling me the reported inhibition of each entry?
Numeric only. Scale: %

Provide value of inhibition for this record tested with Beta-secretase 1 (Homo sapiens, UniProt P56817): CCCCNC(=O)[C@H](C)C[C@H](O)[C@H](Cc1ccccc1)NC(=O)[C@@H]1CCC[C@H]([C@H](C)NC(C)=O)C1
8

What value of inhibition on Beta-secretase 1 (Homo sapiens, UniProt P56817) does CCCCNC(=O)[C@H](C)C[C@H](O)[C@H](Cc1ccccc1)NC(=O)[C@@H]1CCC[C@H]([C@H](CCC)NC(C)=O)C1 have?
15

What value of inhibition on Beta-secretase 1 (Homo sapiens, UniProt P56817) does CCCCNC(=O)[C@H](C)C[C@H](O)[C@H](Cc1ccccc1)NC(=O)[C@@H]1CCC[C@H]([C@H](CC(C)C)NC(C)=O)C1 have?
11

Short answer please: inhibition, Beta-secretase 1 (Homo sapiens, UniProt P56817), entry CCCCNC(=O)[C@H](C)C[C@H](O)[C@H](Cc1ccccc1)NC(=O)[C@@H]1CCC[C@H]([C@H](CC)NC(C)=O)C1
17

* * *

Give IC50 for every item shown.
Respond with the figure and its unit, in that order.

Tell me reported IC50 for CCCCNC(=O)[C@H](C)C[C@H](O)[C@H](Cc1ccccc1)NC(=O)[C@@H]1CCC[C@H](C2(NC(C)=O)CCCC2)C1 , tested with Cathepsin D (Homo sapiens, UniProt P07339).
Sequence (P07339 65-162 limits assumed): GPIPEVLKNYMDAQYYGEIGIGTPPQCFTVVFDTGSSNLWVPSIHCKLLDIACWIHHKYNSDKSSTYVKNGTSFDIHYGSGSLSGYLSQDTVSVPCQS
Sequence (P07339 169-412 limits assumed): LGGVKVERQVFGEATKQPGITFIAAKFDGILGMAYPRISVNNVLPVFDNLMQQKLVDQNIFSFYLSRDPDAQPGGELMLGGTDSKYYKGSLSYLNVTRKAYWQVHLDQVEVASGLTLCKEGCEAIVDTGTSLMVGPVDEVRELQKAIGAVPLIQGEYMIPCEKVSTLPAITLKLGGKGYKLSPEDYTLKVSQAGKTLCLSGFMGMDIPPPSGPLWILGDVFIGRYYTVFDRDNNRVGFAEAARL
0.17 µM

Cathepsin D (Homo sapiens, UniProt P07339) / IC50 / CC(C)c1cccc(CNC[C@H](O)[C@H](Cc2ccccc2)NC(=O)[C@@H]2CCC[C@H](C(C)(C)N3CCCCC3=O)C2)c1 : value?
0.12 µM

Under Cathepsin D (Homo sapiens, UniProt P07339): IC50 value of CCCCNC(=O)[C@H](C)C[C@H](O)[C@H](Cc1ccccc1)NC(=O)[C@@H]1CCC[C@H](C(C)(C)NC(C)=O)C1 ?
0.24 µM

API: value(readout=IC50, system=Cathepsin D (Homo sapiens, UniProt P07339)) for record CCCCNC(=O)[C@H](C)C[C@H](O)[C@H](Cc1ccccc1)NC(=O)[C@@H]1CCC[C@H]([C@@H](NC(C)=O)C(C)C)C1
0.15 µM

Checklist item: IC50 tested on Cathepsin D (Homo sapiens, UniProt P07339), entry CC(C)c1cccc(CNC[C@H](O)[C@H](Cc2ccccc2)NC(=O)[C@@H]2CCC[C@H](C(C)(C)N3CCCC3=O)C2)c1 , value?
0.56 µM

Request: IC50, test system Cathepsin D (Homo sapiens, UniProt P07339), entry CCC(=O)N(C)C(C)(C)[C@H]1CCC[C@@H](C(=O)N[C@@H](Cc2ccccc2)[C@@H](O)CNCc2cccc(C(C)C)c2)C1
0.41 µM
